Quick reference: IC50 of the listed items.
# Test system: A375 multi-cell spheroids with HUVEC/MSC, viability
# Test name: Anticancer human tumor A375 cell line growth inhibition [GQUAD];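 also: spheroids exposed to compounds for seven days before readout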
# Stated conditions: curve of first compound; second compound 0.0316 µM

Molecule	IC50
C=CC(=O)N1CCN(c2nc(=O)n(-c3c(C)ccnc3C(C)C)c3nc(-c4c(O)cccc4F)c(F)cc23)C(C)C1 (stereo unspecified) + Cc1cnc(CNC(=O)c2c(=O)c3ccc(N4CCCN(C)CC4)nc3n3c2sc2ccccc23)cn1	> 10 µM
CCc1c2c(nc3ccc(O)cc13)-c1cc3c(c(=O)n1C2)COC(=O)[C@]3(O)CC + Cc1[nH]c2ccc(F)cc2c1-c1nc2c3cccnc3c3ncccc3c2[nH]1	< 0.000999 µM
Cn1ncnc1[C@H]1c2n[nH]c(=O)c3cc(F)cc(c23)N[C@@H]1c1ccc(F)cc1 + CN(C)c1ccc(Nc2c3ccc(NC(=O)CCN4CCCC4)cc3nc3cc(NC(=O)CCN4CCCC4)ccc23)cc1	> 0.316 µM
COc1ncnc(C2CC2)c1-c1ncc2cnn(Cc3ccc(-c4nc(C(F)(F)F)cn4C(C)C)cc3)c2n1 + CN(C)c1ccc(Nc2c3ccc(NC(=O)CCN4CCCC4)cc3nc3cc(NC(=O)CCN4CCCC4)ccc23)cc1	> 10 µM
COc1ncnc(C2CC2)c1-c1ncc2cnn(Cc3ccc(-c4nc(C(F)(F)F)cn4C(C)C)cc3)c2n1 + Cc1[nH]c2ccc(F)cc2c1-c1nc2c3cccnc3c3ncccc3c2[nH]1	> 10 µM
Cn1ncnc1[C@H]1c2n[nH]c(=O)c3cc(F)cc(c23)N[C@@H]1c1ccc(F)cc1 + Cc1cnc(CNC(=O)c2c(=O)c3ccc(N4CCCN(C)CC4)nc3n3c2sc2ccccc23)cn1	> 0.316 µM

* * *

# System: A375 multi-cell spheroids with HUVEC/MSC, viability
# Test name: Anticancer human tumor A375 cell line growth inhibition [GQUAD];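 also: spheroids exposed to compounds for seven days before readout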
# Stated conditions: second compound 0.316 µM; first compound 3.16 µM; stronger effect = lower value
# Text: DNA G-quadruplex Stabilizer Agents in Combinations in Complex Spheroids A high-throughput screen of multi-cell type tumor spheroids was designed to identify active combinations of DNA G-quadruplex stabilizer agents and targeted small molecules. […] Compounds. […] If the clinical Cmax for an agent had not been determined, the highest concentration tested was 10 microM. […]

Compound	Target	viability, T/C (%)
COc1cccc2c1C(=O)c1c(O)c3c(c(O)c1C2=O)CC(O)(C(=O)CO)CC3OC1CC(N)C(O)C(C)O1 (stereo not drawn) + Cc1[nH]c2ccc(F)cc2c1-c1nc2c3cccnc3c3ncccc3c2[nH]1	A375 multi-cell spheroids with HUVEC/MSC, viability	3.01
COc1ccc([C@@H](O)c2cc(-c3ncnc4cc(N5CCOCC5)ccc34)c(F)cc2Cl)nn1 + CN(C)c1ccc(Nc2c3ccc(NC(=O)CCN4CCCC4)cc3nc3cc(NC(=O)CCN4CCCC4)ccc23)cc1	A375 multi-cell spheroids with HUVEC/MSC, viability	93
CC1COCCN1c1cc(-c2ccnn2C)c2ccnc(-c3ccn[nH]3)c2n1 (stereo not drawn) + CN(C)c1ccc(Nc2c3ccc(NC(=O)CCN4CCCC4)cc3nc3cc(NC(=O)CCN4CCCC4)ccc23)cc1	A375 multi-cell spheroids with HUVEC/MSC, viability	11.1

* * *

Parameter: pIC50. Scope: all listed entries.
# Tested on: A375 multi-cell spheroids with HUVEC/MSC, viability
# Test name: Anticancer human tumor A375 cell line growth inhibition [GQUAD];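 also: spheroids exposed to compounds for seven days before readout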
# Stated conditions: curve of first compound; second compound 0.1 µM
pIC50: −log10 of the molar value.

Compound	Target	pIC50
CC(C)n1c(=O)n(C)c2cnc3cc(F)c(-c4ccc(OCCCN5CCCCC5)nc4)cc3c21 + Cc1[nH]c2ccc(F)cc2c1-c1nc2c3cccnc3c3ncccc3c2[nH]1	A375 multi-cell spheroids with HUVEC/MSC, viability	< 5.00
Cc1cccc(N(C)C(=O)C2C(O)CCN2c2nc(C)cc(C(F)(F)F)c2C#N)c1 (stereo not drawn) + Cc1cnc(CNC(=O)c2c(=O)c3ccc(N4CCCN(C)CC4)nc3n3c2sc2ccccc23)cn1	A375 multi-cell spheroids with HUVEC/MSC, viability	< 5.00
C#Cc1c(F)ccc2cc(O)cc(-c3ncc4c(N5CC6CCC(C5)N6)nc(OCC56CCCN5CC(F)C6)nc4c3F)c12 (stereo not drawn) + Cc1cnc(CNC(=O)c2c(=O)c3ccc(N4CCCN(C)CC4)nc3n3c2sc2ccccc23)cn1	A375 multi-cell spheroids with HUVEC/MSC, viability	< 5.00

* * *

# Tested on: A375 multi-cell spheroids with HUVEC/MSC, viability
# Test name: Anticancer human tumor A375 cell line growth inhibition [GQUAD];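 also: spheroids exposed to compounds for seven days before readout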
# Stated conditions: curve of first compound; second compound 0.1 µM

Compound	IC50
Nc1ccn(C2OC(CO)C(O)C2(F)F)c(=O)n1 (configuration not stated) + CN(C)c1ccc(Nc2c3ccc(NC(=O)CCN4CCCC4)cc3nc3cc(NC(=O)CCN4CCCC4)ccc23)cc1	< 31.6 nM
C=CCn1c(=O)c2cnc(Nc3ccc(N4CCN(C)CC4)cc3)nc2n1-c1cccc(C(C)(C)O)n1 + Cc1cnc(CNC(=O)c2c(=O)c3ccc(N4CCCN(C)CC4)nc3n3c2sc2ccccc23)cn1	408 nM
C=CC(=O)N1CCN(c2nc(=O)n(-c3c(C)ccnc3C(C)C)c3nc(-c4c(O)cccc4F)c(F)cc23)C(C)C1 (configuration not stated) + CN(C)c1ccc(Nc2c3ccc(NC(=O)CCN4CCCC4)cc3nc3cc(NC(=O)CCN4CCCC4)ccc23)cc1	> 10000 nM
CCCS(=O)(=O)Nc1ccc(F)c(C(=O)c2c[nH]c3ncc(-c4ccc(Cl)cc4)cc23)c1F + Cc1cnc(CNC(=O)c2c(=O)c3ccc(N4CCCN(C)CC4)nc3n3c2sc2ccccc23)cn1	< 31.6 nM
C=CCn1c(=O)c2cnc(Nc3ccc(N4CCN(C)CC4)cc3)nc2n1-c1cccc(C(C)(C)O)n1 + Cc1[nH]c2ccc(F)cc2c1-c1nc2c3cccnc3c3ncccc3c2[nH]1	1100 nM
Cn1ncnc1[C@H]1c2n[nH]c(=O)c3cc(F)cc(c23)N[C@@H]1c1ccc(F)cc1 + Cc1cnc(CNC(=O)c2c(=O)c3ccc(N4CCCN(C)CC4)nc3n3c2sc2ccccc23)cn1	> 316 nM
Cn1ncnc1[C@H]1c2n[nH]c(=O)c3cc(F)cc(c23)N[C@@H]1c1ccc(F)cc1 + CN(C)c1ccc(Nc2c3ccc(NC(=O)CCN4CCCC4)cc3nc3cc(NC(=O)CCN4CCCC4)ccc23)cc1	> 316 nM
